experimental-system: T1, human OX40 (CD134), full length, expressed on cells (activated human T cells); EL4-OX40 and CHO-OX40 … (human, UniProt P43489 29-277)
T1 construct: also called TNFRSF4; surface expressed OX40
T1 sequence: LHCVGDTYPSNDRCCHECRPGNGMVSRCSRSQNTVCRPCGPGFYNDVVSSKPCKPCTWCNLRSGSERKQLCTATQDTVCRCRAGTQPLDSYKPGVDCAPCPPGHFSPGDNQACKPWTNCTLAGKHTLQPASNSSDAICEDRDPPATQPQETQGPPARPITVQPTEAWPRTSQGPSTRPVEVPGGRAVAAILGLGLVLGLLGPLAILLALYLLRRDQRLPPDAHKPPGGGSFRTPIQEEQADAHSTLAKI
test-description: flow cytometry titration on activated human T cells, anti-human IgG-PE
measured-quantity: Kd (nM)
Write the answer as a number in nM, unit excluded.

Known Kd results, listed for orientation:
binder	unit-label	Kd
112Y55 human anti-human OX40 monoclonal antibody (hybridoma ATCC No. PTA-7220) (antibody, V domains shown) VH: QITLKESGPTLVKPTQTLTLSCTFSGFSLSTSGVGVGWIRQPPGKALEWLALIHWDDAERYSPSLKSRLTITKDTSKNQVVLTMTNMDLVDTATYYCAHTRGAFDIWGQGTMVTVSS VL: EIVLTQSPGTLSLSPGERAILSCRASQSVSSSFLAWYQQKPGQAPRLLIYGAFSRATGIPDRFSGSGSGTDFTLTISRLEPEDFAVYYCQQYDSSRTFGQGTKVEIK	nM	14
112Y131 human anti-human OX40 monoclonal antibody (hybridoma ATCC No. PTA-7218) (antibody, V domains shown) VH: QITLKESGPTLVKPTQTLTLTCTFSGFSLSTSGVGVGWIRQPPGKALEWLALIYWDDHSPYSPSLKSRLTITKDTSKNQVVLTMTNMDPVDTATYYCARTRGAFDIWGQGTMVTVSS VL: EIVLTQSPATLSLSPGERATLSCRASQGVSSYLAWYQQKPGQAPRLLIYDASNRATGIPARFSGSGPGTDFTLTISSLEPEDFAVYYCQQRSNWHPTFGQGTKVEIK	nM	25
112Z5 human anti-human OX40 monoclonal antibody (hybridoma ATCC No. PTA-7216) (antibody, V domains shown) VH: VVSTQSTGGGLVQPGRSLRLSCAASGFTLDDYGMHWVRQAPGKGLEWVSGISWNSDSIGYVDSVKGRFTISRDNAKNSLYLQMNSLRVEDTALYYCVKDISGWYSFDYWGQGTLVTVSS VL: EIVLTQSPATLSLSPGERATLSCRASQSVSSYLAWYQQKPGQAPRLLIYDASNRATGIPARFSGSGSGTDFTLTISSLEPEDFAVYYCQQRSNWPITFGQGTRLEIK	nM	11

Note: attention shifts to another entry.
Short answer for 112F32 human anti-human OX40 monoclonal antibody (hybridoma ATCC No. PTA-7217) (antibody, V domains shown) VH: GVQLVESGGGLVQPGGSLRLSCAASGFTFSSYSMNWVRQAPGKGLEWVSYISSSSSTIYYADSVKGRFTISRDNAKNSLYLQMNSLRDEDTAVYYCARGVYHNGWSFFDYWGQGTLLTVSS VL: DIQMTQSPSSLSASVGNRVTITCRASQDISSWLAWYQQKPEKAPKSLIYAASSLQSGVPSRFSGSGSGTDFTLTISSLQPEDFATYYCQQYNSYPLTFGQGTRLEIKR : Kd was 13

src = patent US20170081417A1
